Reference for the values: ChEMBL document CHEMBL1201862

// values below are reported GI50
System: UACC-257
Assay: NCI tumour cell line growth inhibition, 48 h
Active and inactive are the calls of the source. No stated cut-off is given here; in the data, active = GI50 up to about 1.1 µM and inactive = higher.
recorded.endpoint: GI50

{"compound": "CC(C)=CC1CC(=O)C1(C)Sc1ccccc1 (configuration not stated)", "target.or.system": "UACC-257", "measurement": "45.5 µM (inactive)"}
{"compound": "CCCCCC/C=C\\CCCCCCCCCC1=C(CN2CCN(C)CC2)C(=O)C=C(OC)C1=O", "target.or.system": "UACC-257", "measurement": "13.3 µM (inactive)"}
{"compound": "COc1ccc(NC(C)c2ccncc2)cc1 (configuration not stated)", "target.or.system": "UACC-257", "measurement": "> 10 µM (inactive)"}
{"compound": "COc1cc(C2S/C(=C/c3ccccc3)C(=O)N2c2cccc(NC(C)=O)c2)cc(OC)c1OC (configuration not stated)", "target.or.system": "UACC-257", "measurement": "66.2 µM (inactive)"}
{"compound": "Cc1oc2ccccc2c(=O)c1Cn1nnc2ccccc21", "target.or.system": "UACC-257", "measurement": "26.4 µM (inactive)"}
{"compound": "Cc1nc(N2N=C(c3ccc(Cl)cc3)CCC2=O)sc1[N+](=O)[O-]", "target.or.system": "UACC-257", "measurement": "> 100 µM (inactive)"}
{"compound": "O=C1c2c(c3c4ccccc4[nH]c3c3[nH]c4ccccc4c23)C(=O)N1Cc1ccccc1", "target.or.system": "UACC-257", "measurement": "3.75 µM (inactive)"}
{"compound": "CC1(C)OC2COC3([C@@H]4OC(C)(C)O[C@@H]4CO)OC(C)(C)OC3C2O1 (some centres not stated)", "target.or.system": "UACC-257", "measurement": "> 100 µM (inactive)"}
{"compound": "COC(=O)c1c2c(cc3c1CC1(C3)Cc3cc4c(c(C(=O)OC)c3C1)CCCC4)CCCC2", "target.or.system": "UACC-257", "measurement": "> 100 µM (inactive)"}
{"compound": "CN1CC2=C(N=C(S)NC2c2ccccc2)/C(=C/c2ccccc2)C1 (configuration not stated)", "target.or.system": "UACC-257", "measurement": "91.6 µM (inactive)"}
{"compound": "NC(=O)C1=CC2C3C=CC2(O)C(=O)OC3O1 (configuration not stated)", "target.or.system": "UACC-257", "measurement": "2.58 µM (inactive)"}
{"compound": "O=C(O)c1cn2c3c(cc(N4CCN(CCO)CC4)cc3c1=O)SCC2", "target.or.system": "UACC-257", "measurement": "> 100 µM (inactive)"}
{"compound": "CC[C@@]1(O)C[C@H](OC2CC(N(C)C)C(O)C(C)O2)c2c(cc3c(c2O)C(=O)c2c(O)ccc(O)c2C3=O)[C@H]1C(=O)OC (some centres not stated)", "target.or.system": "UACC-257", "measurement": "0.0863 µM (active)"}
{"compound": "COC(=O)CC[C@]12C[C@]13CC[C@]1(C)C4C(C)C[C@]5(CC(C)C(=O)O5)OC4CC1(C)C3CCC2C(C)(C)O (some centres not stated)", "target.or.system": "UACC-257", "measurement": "67.1 µM (inactive)"}
{"compound": "CC(Cl)(CCC(Cl)C(C)(C)Cl)C(=O)CBr (configuration not stated)", "target.or.system": "UACC-257", "measurement": "12.4 µM (inactive)"}
{"compound": "O/N=C1/CCCCC1NO (configuration not stated)", "target.or.system": "UACC-257", "measurement": "> 100 µM (inactive)"}
{"compound": "C/C=C(/CCC1NCCC2c3ccccc3NC12)[Si](C)(C)C (configuration not stated)", "target.or.system": "UACC-257", "measurement": "4.38 µM (inactive)"}
{"compound": "O=C1CCCCC/C1=C\\c1ccc(F)cc1", "target.or.system": "UACC-257", "measurement": "52.2 µM (inactive)"}
{"compound": "O=C(c1ccccc1)C(C(=O)c1ccccc1)c1nc2ccccc2sc1=O", "target.or.system": "UACC-257", "measurement": "> 25 µM (inactive)"}
{"compound": "CCCc1[nH]nc(C(N)=O)c1/N=N/N(C)C", "target.or.system": "UACC-257", "measurement": "> 100 µM (inactive)"}
{"compound": "CC(=O)Nc1cccc(N2C(=O)/C(=C\\c3cccc(Oc4ccccc4)c3)SC2c2ccccc2)c1 (configuration not stated)", "target.or.system": "UACC-257", "measurement": "> 100 µM (inactive)"}
{"compound": "Cc1ccc(S(=O)(=O)OCC23CCC(C2)C2CC23)cc1 (configuration not stated)", "target.or.system": "UACC-257", "measurement": "52.1 µM (inactive)"}
{"compound": "COc1cc(-c2nccc3cc(OC)c(OC)cc23)ccc1O", "target.or.system": "UACC-257", "measurement": "69.2 µM (inactive)"}
{"compound": "Cn1c(=O)sc2cc(C(=S)N3CCN(c4ccccc4)CC3)ccc21", "target.or.system": "UACC-257", "measurement": "> 100 µM (inactive)"}
{"compound": "COc1ccc(C[C@H]2NC[C@H](OC(C)=O)[C@H]2OC(C)=O)cc1", "target.or.system": "UACC-257", "measurement": "0.21 µM (active)"}
{"compound": "c1ccc2c(c1)N=C(NC1CCCCC1)CCN2", "target.or.system": "UACC-257", "measurement": "> 100 µM (inactive)"}
{"compound": "CCCCCCCCCCCCCCCC(=O)OCC1OC(n2cc(F)c(=O)[nH]c2=O)C(N)C(O)C1O (configuration not stated)", "target.or.system": "UACC-257", "measurement": "20.2 µM (inactive)"}
{"compound": "COc1cc(CNc2c3ccccc3nc3ccccc23)cc(OC)c1OC", "target.or.system": "UACC-257", "measurement": "3.11 µM (inactive)"}
{"compound": "CC(=O)O/N=C/c1ncccc1CO", "target.or.system": "UACC-257", "measurement": "> 100 µM (inactive)"}
{"compound": "NC(=O)CNC(=O)[C@@H]1C[C@@H](OCCC(=O)O)CN1C(=O)OCc1ccccc1", "target.or.system": "UACC-257", "measurement": "> 100 µM (inactive)"}
{"compound": "CCOC1NC(=O)c2ccccc21 (configuration not stated)", "target.or.system": "UACC-257", "measurement": "> 100 µM (inactive)"}
{"compound": "N#C/C(=C\\c1ccc(O)c(O)c1)c1c(C#N)c(N)nn1-c1ccccc1", "target.or.system": "UACC-257", "measurement": "15.5 µM (inactive)"}
{"compound": "Cc1ccc(C2=C(C#N)C(N)OC3=C2COc2ccccc23)cc1 (configuration not stated)", "target.or.system": "UACC-257", "measurement": "> 100 µM (inactive)"}
{"compound": "COC(=O)CCC1=CCC2(SC)C(=O)Nc3cccc1c32 (configuration not stated)", "target.or.system": "UACC-257", "measurement": "> 100 µM (inactive)"}
{"compound": "COc1cc(C2S/C(=C/c3ccccc3)C(=O)N2c2ccc([N+](=O)[O-])cc2)cc(OC)c1OC (configuration not stated)", "target.or.system": "UACC-257", "measurement": "60.7 µM (inactive)"}
{"compound": "c1ccc2c(c1)c1c3c(c4c(n32)=NCCN4)CCC1", "target.or.system": "UACC-257", "measurement": "38.1 µM (inactive)"}
{"compound": "C=Cc1nc2c(Cl)ncnc2n1Cc1ccccc1", "target.or.system": "UACC-257", "measurement": "2.59 µM (inactive)"}
{"compound": "CCn1c(-c2cc3ccccc3cc2OC(C)=O)n[nH]c1=S", "target.or.system": "UACC-257", "measurement": "24.2 µM (inactive)"}
{"compound": "Cc1cc(O)nc(/N=C(\\N)Nc2ccc(Cl)cc2)n1", "target.or.system": "UACC-257", "measurement": "> 100 µM (inactive)"}
{"compound": "CC(C)=NN/C(=N\\c1ccc(Cl)cc1)NS(=O)(=O)c1cc(Cl)c(Oc2ccc([N+](=O)[O-])cc2Cl)c(Cl)c1", "target.or.system": "UACC-257", "measurement": "> 100 µM (inactive)"}
{"compound": "O=C(CC1C=Cc2ccccc2N1C(=O)c1ccccc1)c1ccccc1 (configuration not stated)", "target.or.system": "UACC-257", "measurement": "20.5 µM (inactive)"}
{"compound": "O=S(=O)(O)c1ccc(/N=N\\c2ccc(/N=N\\c3ccc(/C=C/c4ccc(/N=[N+](/[O-])c5ccc(/C=C/c6ccc(/N=N/c7ccc(/N=N\\c8ccc(S(=O)(=O)O)cc8)cc7)cc6S(=O)(=O)O)c(S(=O)(=O)O)c5)cc4S(=O)(=O)O)c(S(=O)(=O)O)c3)cc2)cc1", "target.or.system": "UACC-257", "measurement": "> 100 µM (inactive)"}
